Data provenance is patent US7238711.

- subject-of-test: T1, CCR3 (human), P51677
- T1 chain: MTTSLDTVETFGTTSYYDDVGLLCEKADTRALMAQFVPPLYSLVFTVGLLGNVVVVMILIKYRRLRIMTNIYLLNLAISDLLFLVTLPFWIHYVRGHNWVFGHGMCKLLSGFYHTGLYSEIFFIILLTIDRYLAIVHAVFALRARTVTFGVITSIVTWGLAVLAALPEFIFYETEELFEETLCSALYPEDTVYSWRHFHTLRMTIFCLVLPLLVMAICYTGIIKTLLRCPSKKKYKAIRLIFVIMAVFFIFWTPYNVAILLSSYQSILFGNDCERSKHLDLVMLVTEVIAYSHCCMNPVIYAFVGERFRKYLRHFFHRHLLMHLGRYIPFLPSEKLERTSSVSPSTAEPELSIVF
- assay-notes: biotin-labeled peptide at 10 µM on HOS transformants, 125I-streptavidin
No end group written: not given here.
property: Kd

Query block: Output measured Kd for this item: CLDPKQKWIQC (not fully specified (N-terminus); cysteine pairing not given here) [N-terminal biotin conjugate of the sequence n'-…-c']
Result block: > 10 µM
